tested on: PPARg:RXRa 30nM:10nM, anti-RXR (NR concentration 30 nM, RXRa partner concentration 10 nM); experiment: PBM binding z-score (relative to random genomic background probes); higher = stronger binding; sequences stand for … in GC…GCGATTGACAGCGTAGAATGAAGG
Each entry falls in a class defined on PBM binding z-score; the bands are range A: < 0.3; range B: ≥ 0.3 and < 2; range C: ≥ 2

>>> answer_label("TCTTGTAGATAAATAGAGGTTAAGAAAGTGCGCT")
"range C"
>>> answer_label("CCAGACAGGTGAGAAGGTAATTCAGCCTCGATTA")
"range A"
>>> answer_label("CCGACTGGGGCATGAGGTTACCATAAGCCAGCCC")
"range B"
>>> answer_label("AGTCAAAGTTCATCCAGGTAACGTAAGATATGCT")
"range C"
>>> answer_label("CGAACTAGGTCATGGACAGTGAATCTCCGCACGC")
"range C"
>>> answer_label("AGTCAAAGTTCAGGACGAGGTAACGTACAGCACG")
"range C"
>>> answer_label("GCTTACGGGTCAAAGGGTATAGCATGAATAGAAT")
"range C"
>>> answer_label("CGTCCAAGGTCAGAGAGGTCAGTTAATGCCGAGT")
"range B"
>>> answer_label("TCTCGGAGTACACGAAAGGTCAGAGCTCGACATC")
"range C"
>>> answer_label("CCTCCAAGGTCAGAGAGGTCAGTGAATGCCGAGT")
"range B"
>>> answer_label("TGTCAAAGTTCAAAGGTATCGTAAGTATCCACAC")
"range C"
>>> answer_label("CTCGAAAGGTCGTGCTCAGGTGAGTTTACCAAAC")
"range B"
>>> answer_label("AGAATGAGGTTACCAAAGATCACGGAAACGCTTG")
"range B"
>>> answer_label("CCTAGTTGGTCATGAGGTCACACACCGGATATGA")
"range C"
>>> answer_label("CCTAGTTGGTCTAGGTCACACACGCTATAGGTAC")
"range B"
>>> answer_label("CAAACTAGGTCACAGAGGTCAAAGCCCGTGCGTA")
"range C"
>>> answer_label("CCTGCTAGATCAATGGTCAGCTAAAGCAGCTCGC")
"range A"
>>> answer_label("CCTCGGAGGACGGAAGGTCAGAGCTGTCCGCTTT")
"range A"
>>> answer_label("CCTGCTAGGTCATGGTGAGCTAATCTACAGTATG")
"range B"
>>> answer_label("CATACAGGGGCAGCTAGGCCAGAGTAGGGACGGC")
"range A"
>>> answer_label("CATACAGGGTCAGCGAGGCCAGAGTAGGGACGGC")
"range B"
>>> answer_label("TCTTGTGGATCAAAGGTTAAGAAAGCCGAAGCCT")
"range C"
>>> answer_label("ATCGAAAGATCGAGGTGAGTATAGAGAAAGGGAA")
"range B"
>>> answer_label("AGAATGAGGTTATGCGTAGATCAGGGAAGAAAGT")
"range B"
>>> answer_label("TCTGCTAGGTAAGTTGGTCAGCTAACGAGCTGCC")
"range B"
>>> answer_label("CCTACTGGTCCAAAGGTCATTGATTCCAATGCTC")
"range C"
>>> answer_label("TCTAGCAGGCCAAAGGGTCACTCAAGAGGTACGG")
"range C"
>>> answer_label("CCTTACGGGCCACTCCAGGTTATAGCATCGGAGT")
"range A"
>>> answer_label("TCATATAGGTAAAAGGTGATAGTCGGTGTGGTAA")
"range C"
>>> answer_label("GGAACGAGGGCATTCGAGTTGATGGCATGGCGAT")
"range A"
>>> answer_label("CCTCGGTGGACAACAGGAGGTCAGAGCTGCCAGA")
"range A"
>>> answer_label("ACTATTAGTTGAGACGAGGCCAACCGATAGGTTG")
"range A"
>>> answer_label("ATCTGTAGGTTACATCCGGGTCATTCAGGCTATG")
"range B"
>>> answer_label("CCGAGAAGGTTATGGGGCATTCAGGCAACGGTGA")
"range A"
>>> answer_label("AGAATGAGGTTATACGGAGATCAGGGAAGAAAGT")
"range B"
>>> answer_label("ACTATTAGTTGACTTAGGGCAACGGATACGACGC")
"range A"
>>> answer_label("ACTCGGAGGCCAAAGGTCAGAGCTACGCCAGTGA")
"range C"
>>> answer_label("GCAGACATGTGAAACGCAGGTAACTCAGGGTGGC")
"range A"
>>> answer_label("GCATATAGGTAATAGAAGGTGAAAGTCCGATTGT")
"range B"
>>> answer_label("GCATATAGGTAATACAAGGAGAAAGTCCGATTGT")
"range A"
>>> answer_label("CAAACTAGGTCGCGAAAGGTCAAAGTCGAATGAC")
"range C"

----------
tested on: RARb:RXRa (NR concentration 270 nM, RXRa partner concentration 90 nM); test: PBM binding z-score (relative to random genomic background probes); higher = stronger binding; sequences stand for … in GC…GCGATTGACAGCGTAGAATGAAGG
outcome-measure: PBM binding z-score

>>> measured("ACTAGCAGGCCAAGTTTGGGTCACTGAAACAAAG")
2
>>> measured("CCTTGTTGGTCAAGGTCACACACGCTATAGGTAC")
4.3
>>> measured("GCTAGTTGGTCAGTAAGAGGTCACACACCGGTCG")
3.73
>>> measured("TCATATAGGTAAACAGGTGAAAGTGCGTAAGTTA")
0.94
>>> measured("ATATGTAGGTTATCGCGTCATTCAGTTTGCGCAT")
0.976
>>> measured("GGAACGAGGGCAAAGTTGATATCATCTGTCGACG")
2.32
>>> measured("TCTAGTTTGTCAAAGGTCACACACTCGAAATGCG")
4.98
>>> measured("ACTCGGAGGACAAAGGTCAGAGTTACGCCAGTGA")
4.38
>>> measured("CCGACTGGGGCTGAAAGGTTACCATACCATCCGG")
1.46
>>> measured("CGAACTAGGTCATTGACAGGATAGTGAATAGTAA")
3.59
>>> measured("ATATGTAGGTTATCGGGACATTCAGTTTGCGCAT")
1.06
>>> measured("CCGACTAGGGCATAAGGTTACCATAAGCCAGCCC")
1.86
>>> measured("TCTATTAGTTAAAGGGCAACCGACGAGTCCGTTT")
2.47
>>> measured("GGAACGAGGGCATCCGAGTTGATAGCATGGCGAT")
1.78
>>> measured("GTACCAGGGTGAATAGGTCGTTGATGAGTAGGCG")
1.24
>>> measured("CGTACTGGGCCATTCAGAGGTCATTGATCATATG")
3.18
>>> measured("CCGATTGGGGCAAGGTTACCATAACGCACAGCCA")
1.67
>>> measured("TCTCGTAGATCAGCAGGTTAAGAAAGCTGGCCAA")
-0.0596
>>> measured("GCGACTGGGGCATCAGCATGTTACCATAACTTAA")
0.376
>>> measured("ATCGAAAGGGCGACGAGGTGAGTATACACCGTTT")
1.74
>>> measured("TCTTGTAGAGCAAGCAGGTTAAGAAAGCCTGAGT")
-0.127

----------
tested on: PPARg:RXRa DBDmut IVT, anti-RXR (DBD mutation: RXRa K156A/R161A, NR concentration 270 nM, RXRa partner concentration 90 nM); experiment: PBM binding z-score (relative to random genomic background probes); higher = stronger binding; sequences stand for … in GC…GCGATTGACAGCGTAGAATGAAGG
outcome-measure: PBM binding z-score

>>> measured("CCTTACGGGTCACTGACAGGTTAGAGCATTTGGA")
3.5
>>> measured("CGTCCAAGGTCAATGCTCGGTCAGTGAAAGCATT")
3.28
>>> measured("CCGAGTAGGTTATGTGGCATTCAGGCAACGGTGA")
3.28
>>> measured("CCTAGCAGGCCAAGCTGGGTCACTCAAGGCTTGA")
1.17
>>> measured("CCTTACGGGTCACTGACAGGTTATAGGATTTGGA")
3.61
>>> measured("GCTTGTAGATCAAGGTTAAAAAAGACTAAGCTAA")
1.05
>>> measured("TAGCCTTGGTCAGATCGGGCCAGTATACGCTATA")
-0.7
>>> measured("CCTTACGGGTCACGAGGTTATAGGACGACGAGCG")
4.3
>>> measured("ATCTCTAGGTAAATATAGTTCAGTGAATGCAAAT")
1.8
>>> measured("TCGAGTACGTTAGGGGCATTCAGAATGGCGTCGA")
0.475
>>> measured("CGAATGAGGGCATGAGTTGATAGCAAATGCCGAT")
4
>>> measured("AGAACGAGGGCACTGAGTTGATAGCACGGGTGGC")
3.56
>>> measured("GCTAGCAGGCCATTTGGGTTACTCAATGACGGGC")
0.933
>>> measured("TCTCGTTGGTCAAAGGTCACACACTCGAAATGCG")
2.72
>>> measured("CTCGAAATGTCGGTTGAGGTGAGTATACGGATAA")
-0.0159
>>> measured("ATAACGAGGGCACGCTGAGTTGATAGCAGAGTAG")
4.2
>>> measured("ATACCAAGGTGAACGTGAGGTCGTTGATACTAAC")
2.44
>>> measured("CAAACTAGGTCACCGGATGGTCAAAGTCCGCATG")
8.46
>>> measured("CATACAGGGTCACCTAGGCCAGAGTAGGGACGGC")
1.55
>>> measured("AGTCAAAGTTCCCTAGGTAACGTAAGATTCAGCT")
-0.23
>>> measured("CCTTACGTGTCAAGGTTATAGCACGGGTGGTACG")
0.564
>>> measured("CCTGCTAGGTCTTGGTCAGCTAATCTACAGTATG")
0.846
>>> measured("TCTAGTTGGTCAAACGTCACACACTCGAAATGCG")
3.29
>>> measured("GCTAATAGTTGAAAGGGCAACCGAATGATTCTCG")
0.302
>>> measured("TAGCCTAGGTCATTGGGCCACTATAGTACGCATC")
3.5
>>> measured("TAGCCTTGGTCATTGGGCCAGTATAGTACGCATC")
-0.486
>>> measured("GCTCGGAGGACAAGGCCAGAGCTTTGTCCGTAGA")
-1.3
>>> measured("CCTGCTAGGTCAGGGTCAGCTAATCTACAGTATG")
3.18
>>> measured("ACTAGCTGGCCAAGGGTCACTCAAGATTAGTCCG")
-0.256
>>> measured("TCTTGTACATCAGCAGGTTAAGAAAGCTGGCCAA")
1.51
>>> measured("ATATGTAGGTTATCGGGTCATTCAATTTGCGCAT")
7.45
>>> measured("CCGACTGGGGCAGTAAGGTTACCATACCATCCGG")
2.7
>>> measured("TCATATAGGTAAACAGGTGAAGGTCCGTAAGTTA")
4.86
>>> measured("GGAGACAGGTGAAACGCAGGTAACTCAGGGTGGC")
0.957
>>> measured("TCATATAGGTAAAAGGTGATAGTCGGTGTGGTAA")
5.2
